target: CDK7/cyclinH/MAT1 trimeric complex (Homo sapiens, UniProt P50613); assay: In vitro CDK7 assay, potency of irreversible covalent inhibitors (kinact/KI), coupled PK/LDH ADP readout at 340 nm; conditions: read-out: CDK7 (20 nM enz.) (kinact/KI, M^−1*s^−1), 20 nM enzyme
Sequence (P50613 whole entry): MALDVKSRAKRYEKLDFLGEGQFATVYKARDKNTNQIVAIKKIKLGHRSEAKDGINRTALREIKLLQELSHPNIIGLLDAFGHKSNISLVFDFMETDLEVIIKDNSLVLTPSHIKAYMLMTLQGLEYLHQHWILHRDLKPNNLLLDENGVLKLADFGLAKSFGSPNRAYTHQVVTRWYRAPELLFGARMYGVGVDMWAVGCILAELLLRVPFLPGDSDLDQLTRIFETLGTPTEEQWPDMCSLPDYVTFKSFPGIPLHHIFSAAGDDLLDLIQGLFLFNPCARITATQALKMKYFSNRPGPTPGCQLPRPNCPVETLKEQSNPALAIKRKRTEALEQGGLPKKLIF
Sequence (P51946 whole entry partner): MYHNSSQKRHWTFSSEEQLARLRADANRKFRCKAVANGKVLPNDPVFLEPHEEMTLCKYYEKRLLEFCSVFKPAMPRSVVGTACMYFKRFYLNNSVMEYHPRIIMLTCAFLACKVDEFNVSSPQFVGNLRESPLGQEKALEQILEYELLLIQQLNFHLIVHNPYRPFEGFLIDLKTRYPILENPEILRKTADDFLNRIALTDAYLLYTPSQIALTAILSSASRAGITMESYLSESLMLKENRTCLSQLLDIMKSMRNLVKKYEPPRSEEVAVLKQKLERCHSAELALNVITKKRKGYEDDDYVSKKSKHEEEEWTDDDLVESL
Sequence (P51948 whole entry partner): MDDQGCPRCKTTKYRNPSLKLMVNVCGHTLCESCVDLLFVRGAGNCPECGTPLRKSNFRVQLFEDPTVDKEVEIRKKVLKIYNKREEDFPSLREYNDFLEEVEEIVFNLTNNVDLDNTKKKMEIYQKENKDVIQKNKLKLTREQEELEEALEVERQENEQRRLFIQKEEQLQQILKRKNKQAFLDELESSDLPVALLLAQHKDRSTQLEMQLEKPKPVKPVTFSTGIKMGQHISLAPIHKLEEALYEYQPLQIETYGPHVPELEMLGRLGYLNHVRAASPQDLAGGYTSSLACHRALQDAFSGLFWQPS
Answer NOT MET if kinact/KI is under 40 M⁻¹ s⁻¹, and MET if it is 40 M⁻¹ s⁻¹ or more.

| compound | testedSystem | labelValue |
| --- | --- | --- |
| C=CC(=O)N1CC(N2CC[C@H](c3cc4c(c(C)n3)O[C@H](C)c3c(N5CCOCC5)ccnc3N4)C2)C1 (single isomer, unassigned) | CDK7/cyclinH/MAT1 trimeric complex (Homo sapiens, UniProt P50613) | NOT MET |
| C=CC(=O)N1CCC(N2CC(c3cc(Cl)c4c(c3)Nc3nccc(C5CCOCC5)c3CO4)C2)CC1 | CDK7/cyclinH/MAT1 trimeric complex (Homo sapiens, UniProt P50613) | MET |
| C=CC(=O)N1CCC(N2CCC(c3ccc4c(c3)Nc3nccc(N5CCS(=N)(=O)CC5)c3CO4)CC2)CC1 | CDK7/cyclinH/MAT1 trimeric complex (Homo sapiens, UniProt P50613) | MET |

Problem: Quick check: does C=CC(=O)N1CC[C@H](N2CC(c3cc4c(c(C)n3)OCc3c(C5CCOCC5)ccnc3N4)C2)[C@@H](F)C1 (mixture of isomers) have kinact/KI greater than or equal to 40 M⁻¹ s⁻¹?
Result: MET

Problem: Kindly determine if kinact/KI recorded for C=CC(=O)N1CC(N2CCC[C@H](c3ccc4c(c3)Nc3nccc(N5CCOCC5)c3CO4)C2)C1 (single isomer, unassigned) is above or exactly 40 M⁻¹ s⁻¹.
Result: MET

Problem: Check if kinact/KI >= 40 M⁻¹ s⁻¹ (inclusive). Item: CC#CC(=O)N1CCC(N2CC(c3cc(C#N)c4c(c3)Nc3nccc(N5CCOCC5)c3[C@H](C)O4)C2)C1 (mixture of isomers)
Result: NOT MET

Problem: Would you say CC#CC(=O)N1CC(N2CC(c3cc4c(c(C)n3)O[C@H](C)c3c(N5CCOCC5)ccnc3N4)C2)C1 (single isomer, unassigned) shows kinact/KI at minimum 40 M⁻¹ s⁻¹?
Result: MET

Problem: Has C=CC(=O)N1CC[C@@H](N2CC(c3cc4c(c(C#N)n3)O[C@@H](C)c3c(N5CCOCC5)ccnc3N4)C2)C1 (single isomer, unassigned) a recorded kinact/KI greater than or equal to 40 M⁻¹ s⁻¹?
Result: NOT MET

Problem: Reported kinact/KI reaches at least 40 M⁻¹ s⁻¹ for C=CC(=O)N1CCC(C2CN(c3cc4c(c(C)n3)OCc3c(N5CCOCC5)ccnc3N4)C2)CC1 ?
Result: NOT MET

Problem: Determine whether this compound has kinact/KI no lower than 40 M⁻¹ s⁻¹: C=CC(=O)N1CC[C@@H](N2CC(c3cc4c(c(C5CC5)n3)OCc3c(-c5cnn(C)c5)ccnc3N4)C2)C1 (single isomer, unassigned)
Result: MET

Problem: Does the reported kinact/KI for C=CC(=O)N1CC[C@H](N2CCC(c3ccc4c(c3)Nc3ncc(F)c(N5CCOCC5)c3CO4)CC2)C1 (single isomer, unassigned) fall at or above the 40 M⁻¹ s⁻¹ mark?
Result: MET
